# Lookup of reported inhibition at 0.1 µM keyed by entry
molecular target: human 11b-hsd-1 (Homo sapiens, UniProt P28845); test: Inhibition constant Ki of human 11b-hsd-1 (3H-cortisone to 3H-cortisol conversion, HPLC); type: biochemical; conditions: 0.1 μM compound
Sequence (P28845 whole entry): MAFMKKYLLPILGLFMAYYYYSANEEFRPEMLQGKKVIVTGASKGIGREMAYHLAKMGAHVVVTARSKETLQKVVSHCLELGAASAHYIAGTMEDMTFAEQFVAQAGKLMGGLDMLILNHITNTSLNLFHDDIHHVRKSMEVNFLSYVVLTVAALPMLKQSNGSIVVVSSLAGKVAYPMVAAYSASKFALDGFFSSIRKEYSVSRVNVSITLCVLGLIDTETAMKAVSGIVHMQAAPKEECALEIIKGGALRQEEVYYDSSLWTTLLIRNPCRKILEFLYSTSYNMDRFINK
# value in %; strip the unit string

Here is how some compounds turned out for inhibition at 0.1 µM.
CC(C)CN1CCC[C@@H]1C(=O)NCc1cccc(F)c1 [Example 237]: 100
O=C(N[C@@H]1CCCc2ccccc21)[C@H]1CCCN1Cc1ccccc1 [Example 295]: 100
CC(C)CN1CCOC[C@@H]1C(=O)N(C)C1CCCCC1 [Example 333]: 100
C[C@@H](NC(=O)[C@H]1COCCN1Cc1ccccc1)c1ccc(Cl)cc1 [Example 314]: 94.8
O=C(NC1CCCCC1)[C@H]1COCCN1Cc1ccccc1 [Example 302]: 99.1
O=C(NC1C2CC3CC(C2)CC1C3)[C@H]1NCC[C@@H]1c1ccc(Cl)cc1 (stereo partly shown) [Example 367]: 93.5
Cc1ccccc1O[C@@H]1CN[C@H](C(=O)NC2C3CC4CC(C3)CC2C4)C1 (stereo partly shown) [Example 320]: 100
CC(C)CN1CCC[C@@H]1C(=O)NCc1ccccc1Cl [Example 257]: 100

Report inhibition at 0.1 µM, nothing else, for this compound: CC(C)CN1CC[C@H](O)[C@H]1C(=O)NC12CC3CC(CC(C3)C1)C2 [Example 211]
80.2

Report inhibition at 0.1 µM, nothing else, for this compound: O=C(NC1C2CC3CC(C2)CC1C3)[C@H]1NCC[C@@H]1Cc1ccccc1 (stereo partly shown) [Example 369]
100

---

target: human 11b-hsd-1 (Homo sapiens, UniProt P28845); test: Inhibition constant Ki of human 11b-hsd-1 (3H-cortisone to 3H-cortisol conversion, HPLC); type: biochemical; details: apparent Ki; read-out: Ki app
pKi: −log10 of the molar value.
Tick Met if pKi is 8 or greater. Tick Not met if pKi is less than 8.

These recorded examples may help you get a feel for the data.
CC(C)CN1CCC[C@@H]1C(=O)N[C@H](C)c1ccccc1: Met
CC(C)CN1CCOC[C@@H]1C(=O)NCC1CCCCC1: Met

Dear colleague, could you confirm whether `O=C(NC1CCCCC1)[C@H]1COCCN1Cc1ccccc1` has pKi at or above 8?
Met

Dear colleague, could you confirm whether `CC(C)CN1CCC[C@@H]1C(=O)NCc1c(F)cccc1F` has pKi at or above 8?
Met

Dear colleague, could you confirm whether CC(C)CN1CCCCC1C(=O)NC12CC3CC(CC(C3)C1)C2 (stereo not shown) has pKi at or above 8?
Met

Dear colleague, could you confirm whether `O=C(NCc1ccccc1)[C@H]1CCCN1CC1CC1` has pKi at or above 8?
Not met

---

molecular target: human 11b-hsd-1 (Homo sapiens, UniProt P28845); experiment: Inhibition constant Ki of human 11b-hsd-1 (3H-cortisone to 3H-cortisol conversion, HPLC); format: biochemical; conditions: 0.1 μM compound
readout: inhibition at 0.1 µM (%)
# value in %; strip the unit string

Here is how some molecules turned out for inhibition at 0.1 µM.
O=C(N[C@H]1c2ccccc2C[C@H]1O)[C@H]1CCCN1CC1CCCC1: 92.6
COc1cccc(CNC(=O)[C@H]2CCCN2CC(C)C)c1: 89.6
CC(C)CN1CCOC[C@@H]1C(=O)N[C@@H]1CCCc2ccccc21: 91

Fill in inhibition at 0.1 µM for `C[C@@H](NC(=O)[C@H]1CCCN1CC1CCCC1)c1ccccc1` tested with human 11b-hsd-1 (Homo sapiens, UniProt P28845).
92.1

Fill in inhibition at 0.1 µM for `CCCN1CCC[C@@H]1C(=O)NCc1ccc(OC)cc1` tested with human 11b-hsd-1 (Homo sapiens, UniProt P28845).
91.1

Fill in inhibition at 0.1 µM for `CC(C)CN1CCOC[C@@H]1C(=O)N[C@H](C)c1ccc(Cl)cc1` tested with human 11b-hsd-1 (Homo sapiens, UniProt P28845).
91.1

Fill in inhibition at 0.1 µM for O=C(NC1C2CC3CC(C2)CC1C3)[C@H]1CNC[C@H](c2ccccc2)C1 (stereo partly shown) tested with human 11b-hsd-1 (Homo sapiens, UniProt P28845).
90.2
